# testedTarget: Ribonuclease HI (Escherichia coli (strain K12))
# protocolText: E. coli RNase HI inhibitors, dose response, biochemical, FRET RNA/DNA duplex cleavage (AID 365)
# conditionDetails: E. coli RNase H, FRET RNA/DNA cleavage fluorescence
The source made the active and inactive calls. No rule for the calls is given here.
Outcomes: label 1 = active, label 0 = inactive

| compound | category |
| --- | --- |
| O=C1c2ccccc2C(=O)c2c1cc(O)c(O)c2O | label 0 |
| O=C1C=CC2=C3c4cc(O)c(O)cc4CC3(O)COC2=C1O (stereo unspecified) | label 0 |
| Cc1ccc(-c2c(C#N)c(SCC(=O)c3ccc(O)c(O)c3)nc3c2CCCC3)o1 | label 1 |
| C=C(CCC(C(=O)O)C1CCC2(C)C3=C(CCC12C)C1(C)CCC(O)C(C)(C)C1CC3)C(C)C (stereo unspecified) | label 1 |
| O=[N+]([O-])c1ccc(S(=O)(=O)Cc2ccccc2)c2nonc12 | label 0 |
| O=C1NC(=S)N(c2ccc(Cl)cc2)C(=O)/C1=C/c1ccco1 | label 0 |
| CC(C)=CCc1ccc(O)c(=O)cc1C(C)C | label 1 |
| NC(=O)c1c(NC(=O)CCc2ccccc2)sc2c1CCCCCC2 | label 1 |
| O=C1NC(=O)/C(=C/c2ccc(-c3ccc(O)c(C(=O)O)c3)o2)S1 | label 1 |
| O=C(N/N=C/c1ccc(/C=N/NC(=O)c2ccc(O)c(O)c2)cc1)c1ccc(O)c(O)c1 | label 1 |
| O=C1NN(c2ccc(I)cc2)C(=O)/C1=C\c1ccc(O)c(O)c1 | label 1 |

---

# testedTarget: Ribonuclease HI (Escherichia coli (strain K12)) (UniProt P0A7Y4)
# Sequence (P0A7Y4 whole entry, looked up): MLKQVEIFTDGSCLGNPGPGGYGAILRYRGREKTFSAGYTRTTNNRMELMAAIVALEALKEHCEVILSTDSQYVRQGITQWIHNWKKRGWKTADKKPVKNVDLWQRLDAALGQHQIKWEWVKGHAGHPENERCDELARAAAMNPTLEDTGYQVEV
# protocolText: E. coli RNase HI inhibitors, dose response, biochemical, FRET RNA/DNA duplex cleavage (AID 365)
# conditionDetails: E. coli RNase H, FRET RNA/DNA cleavage fluorescence
Calls of active or inactive are those of the source. How the calls were made is not given here.
Outcomes: active, inactive

| compound | category |
| --- | --- |
| O=C1C=CC(=O)C(c2cccc(Cl)c2)=C1 | active |
| COC([CH2][Hg][n]1cnc2c1c(=O)n(C)c(=O)n2C)CN1C(=O)c2ccccc2S1(=O)=O (stereo unspecified) | inactive |
| O=C1c2ccccc2C(=O)N1c1ccc(-c2nc3ccc(N4C(=O)c5ccccc5C4=O)cc3[nH]2)cc1 | active |
| O=c1oc2ccccc2c(O)c1/C=C1\C=Nc2ccccc21 | inactive |
| Cc1cc(C(=O)O)ccc1-n1c(C)ccc1C | inactive |
| Cc1ccccc1-n1c(O)c(C=C2C=CC=N2)c(=O)[nH]c1=S | active |

---

# testedTarget: Ribonuclease HI (Escherichia coli (strain K12)) (UniProt P0A7Y4)
# protocolText: E. coli RNase HI inhibitors, dose response, biochemical, FRET RNA/DNA duplex cleavage (AID 365)
# conditionDetails: E. coli RNase H, FRET RNA/DNA cleavage fluorescence
Activity calls are given as the source filed them. How the calls were made is not given here.
Outcomes: active, inactive

| compound | category |
| --- | --- |
| N#Cc1c(NC(=O)C(F)(F)F)sc2c3c(=O)c4ccccc4c(=O)c=3oc3ccccc3c12 | inactive |
| O=C1c2cc([N+](=O)[O-])ccc2-c2ccc3c4ccc5c6c(ccc(c7ccc1c2c73)c64)C(=O)c1cc([N+](=O)[O-])ccc1-5 | active |
| O=S(=O)(Nc1cccc(C(F)(F)F)c1)c1ccc2ccccc2c1 | inactive |
| C[C@@H]1Oc2c3c(c4c(-c5ccccc5)cc(=O)oc4c2C(=O)[C@H]1C)OC(C)(C)C=C3 | active |
| O=C1c2ccccc2C(=O)c2c(O)c(O)cc(O)c21 | inactive |
| CC(C)=CCC1=C(O)[C@@](O)(CC=C(C)C)C(=O)C(C(=O)CC(C)C)=C1O | inactive |
| CCCc1cc(=O)oc2c3c(c4c(c12)OC(C)(C)C=C4)O[C@@H](C)[C@H](C)[C@@H]3F | active |
| COC(=O)c1c(N)sc(C(=O)Nc2ccc(OC)cc2)c1C | inactive |
| CN1CC(O)C2=CC(=O)C(=O)C=C21 (centres undefined) | inactive |

---

# testedTarget: Ribonuclease HI (Escherichia coli (strain K12))
# protocolText: E. coli RNase HI inhibitors, dose response, biochemical, FRET RNA/DNA duplex cleavage (AID 365)
# conditionDetails: E. coli RNase H, FRET RNA/DNA cleavage fluorescence
Activity calls are given as the source filed them. How the calls were made is not given here.
Outcomes: active, inactive

| mol | category |
| --- | --- |
| COc1cccc2cc(C(N)=O)c(=O)oc12 | inactive |
| COc1cc(/C=N\c2sc3c(c2C(=O)NCc2ccccc2)CCCC3)cc(Cl)c1O | active |
| COC(=O)c1cc2cc3cc4cc(CC(=O)O)c(C(=O)/C=C(\O)c5ccccc5O)c(OC)c4c(OC)c3c(O)c2c(=O)o1 | inactive |

---

# testedTarget: Ribonuclease HI (Escherichia coli (strain K12)) (UniProt P0A7Y4)
# protocolText: E. coli RNase HI inhibitors, dose response, biochemical, FRET RNA/DNA duplex cleavage (AID 365)
# conditionDetails: E. coli RNase H, FRET RNA/DNA cleavage fluorescence
Calls of active or inactive are those of the source. How the calls were made is not given here.
Outcomes: active, inactive

| compound | category |
| --- | --- |
| CC1Oc2cc3c(-c4c(O)cc(O)c5c(O)c6c(cc45)OC(C)C(C)C6=O)c(O)cc(O)c3c(O)c2C(=O)C1C (configuration not stated) | inactive |
| O=C(O)C1Nc2c(Cl)cc(Cl)cc2C2C=CCC12 (configuration not stated) | inactive |
| COc1cc([C@@H]2c3cc4c(cc3C[C@H]3COC(=O)[C@@H]32)OCO4)cc(OC)c1O | active |
| O=C1C(Cl)=C/C(=N\S(=O)(=O)c2ccccc2)C(Cl)=C1Cl | inactive |
| C=CC(C)(C)C12CC3C(=O)N/C(=C\c4cnc[nH]4)C(=O)N3C1Nc1ccccc12 (configuration not stated) | inactive |
| O=C1C=CC(=O)c2c(O)cccc21 | active |
| O=C(Oc1ccccc1)Oc1c(Cl)cc2oc(=O)sc2c1Cl | active |
| CCC(=O)Nc1sc2c(c1C(=O)Nc1ccc(OC)cc1)CCCCC2 | active |
| O=C(O)/C=C/c1c2ccc(=O)c(O)c-2oc2c(O)c(O)ccc12 | active |
| O=C1C=CC(=O)C(c2cc(Cl)ccc2Cl)=C1 | active |
| O=c1c(O)c(-c2ccc(O)c(O)c2)oc2cc(O)cc(O)c12 | inactive |
| Cc1ccc(C)n1-c1ccc(O)c(C(=O)O)c1 | inactive |
| O=C(O)c1c(Br)c(Br)c(Br)c(Br)c1C1c2ccc(O)cc2Oc2cc(O)ccc21 | active |
| Nc1ccc(N=Nc2ccc(-c3ccc(O)cc3)cc2)c2ccc(S(=O)(=O)O)cc12 | inactive |
| CC(=O)/C=C/C=C/c1ccc2c(c1)OC(CO)C(c1ccc(O)c(O)c1)O2 (configuration not stated) | inactive |
| COc1ccc2c(c1)N(C(=O)CN1C(=O)c3ccccc3C1=O)C(C)(C)c1ssc(=S)c1-2 | inactive |
| O=C1/C(=C/c2ccc(O)c(O)c2)SC(=S)N1C1CCCCC1 | active |

---

# testedTarget: Ribonuclease HI (Escherichia coli (strain K12)) (UniProt P0A7Y4)
# protocolText: E. coli RNase HI inhibitors, dose response, biochemical, FRET RNA/DNA duplex cleavage (AID 365)
# conditionDetails: E. coli RNase H, FRET RNA/DNA cleavage fluorescence
Calls of active or inactive are those of the source. The rule behind the calls is not given here.
Outcomes: active, inactive

| molecule | category |
| --- | --- |
| O=C1Nc2ccc(I)cc2C1(O)N1CCOCC1 (configuration not stated) | active |
| Cc1ccc(C)n1-c1ccc(Br)cc1C(=O)O | inactive |
| Cc1sc(NC(=O)C2CC3CCC2C3)c(C(N)=O)c1C (configuration not stated) | inactive |
| Cc1ccc(-n2c(/C=C/c3ccc(O)c(O)c3)nc3ccccc3c2=O)cc1 | active |
| O=C(N/N=C/c1ccccc1Cl)c1cc(O)c(O)c(O)c1 | inactive |
| Cc1sc2nc(-c3ccc([N+](=O)[O-])cc3)[nH]c(=O)c2c1C | active |
| Cc1sc(NC(=O)C2CCCO2)c(C(N)=O)c1C (configuration not stated) | inactive |

---

# testedTarget: Ribonuclease HI (Escherichia coli (strain K12))
# protocolText: E. coli RNase HI inhibitors, dose response, biochemical, FRET RNA/DNA duplex cleavage (AID 365)
# conditionDetails: E. coli RNase H, FRET RNA/DNA cleavage fluorescence
The source made the active and inactive calls. How the calls were made is not given here.
Outcomes: yes for active, no for inactive

| compound | category |
| --- | --- |
| Nc1ccc(S(=O)(=O)O)c2cccc(O)c12 | no |
| O=C(O)CCc1c2ccc(=O)c(O)c-2oc2c(O)c(O)ccc12 | yes |
| NCC[Se][Se]CCN | no |
| NC(=O)c1c(N)sc2c1CCCCC2 | no |
| Cc1ccc(S(=O)(=O)N=C2C=C(Cl)C(=O)C(Br)=C2)cc1 | no |
| Oc1ccc(/C=N/Nc2nncc(-c3ccccc3)n2)c(O)c1O | yes |
| O=C1/C(=C/c2ccc(O)c(O)c2)SC(=S)N1c1ccc(O)cc1 | yes |
| CC(C)c1ccc(O)c(O)c(=O)c1 (tested in a mixture with another compound) | no |
| Cc1ccc(C2COc3cc(O)c(O)cc3C2)cc1 (stereo unspecified) | no |
| O=C(CSc1nc2ccccc2s1)c1sc2sc3ccccc3[n+]2c1[O-] | yes |
| O=C1NC(=S)N(c2ccc(Cl)cc2)C(=O)/C1=C\C=C\c1ccccc1[N+](=O)[O-] | yes |
| Cc1ccc(NC(=O)c2c(NC(=O)c3ccccc3F)sc3c2CCCCC3)cc1 | yes |
| O=C1NC(=S)N(c2cccc(Cl)c2)C(=O)/C1=C\C=C\c1ccco1 | no |
| O=C(Nc1sc2c(c1C(=O)Nc1cccc3ccccc13)CCCCC2)c1ccccc1F | yes |
| S=C(Nc1ccc2c(c1)Cc1ccccc1-2)Nc1ccc2c(c1)Cc1ccccc1-2 | yes |
| O=C1/C(=C\c2ccc(O)c(O)c2)SC(=S)N1c1cccc(Cl)c1 | yes |
| O=c1[nH]c(=S)n(-c2ccccc2F)c(O)c1C=C1C=CC=N1 | yes |
| O=C1/C(=C/c2ccco2)C(=O)N(c2ccc(Br)cc2)C(=S)N1c1ccccc1 | no |
| Cc1cc(I)c2c(c1)C1C=CCC1C(C(=O)O)N2 (stereo unspecified) | no |
| O=C1C=CC(=NS(=O)(=O)c2ccc(Cl)c([N+](=O)[O-])c2)C=C1 | yes |
| CCN1C(=O)/C(=C/c2ccoc2)C(=O)NC1=S | no |
| Cc1cc(Br)ccc1N1C(=O)/C(=C/c2ccco2)C(=O)NC1=S | yes |
| O=C1CC(=O)c2ccc3c4c(ccc1c24)C(=O)CC3=O | yes |
| Cc1cc(Cl)ccc1OCC(=O)Nc1sc(C)c(C)c1C(N)=O | yes |
| CCOc1ccc(N2C(=O)/C(=C/c3ccc(I)o3)C(=O)NC2=S)cc1 | yes |
| C=CC1=C(C)C2=NC1=CC1=NC(=CC3=C(C)C4=C(O)C(C(=O)OC)C(=C5NC(=C2)C(C)C5CCC(=O)OC/C=C(\C)CCCC(C)CCCC(C)CCCC(C)C)C4=N3)C(CC)=C1C (stereo unspecified) | no |
| O=C(Cc1ccccc1Cl)c1ccc(O)c(O)c1O | no |
| CN(C)CS/C(N)=N/C(O)C(Cl)(Cl)Cl (stereo unspecified) | no |
| C[C@H]1[C@H](O)c2c(c3c(c4c(-c5ccccc5)cc(=O)oc24)OC(C)(C)C=C3)O[C@@H]1C | no |
| O=C1O/C(=C(/C(=O)O)c2ccc(O)cc2)C(O)=C1c1cc2c3c(c(O)cc(C4=C(O)/C(=C(\C(=O)O)c5ccc(O)cc5)OC4=O)c3c1)OC2=O | no |
| Cc1ccc(C=C2C(=O)NC(=S)N(c3ccccc3Cl)C2=O)o1 | no |
| Cc1c(O)c(Br)c(C)c(O)c1Br (tested in a mixture with another compound) | no |
| C=Cc1c(C)c2cc3[nH]c(cc4nc(cc5nc(cc1[nH]2)C(C)=C5CCC(=O)O)C(CCC(=O)O)=C4C)c(C)c3C=C | no |
| Cc1ccc(S(=O)(=O)N=C2C=CC(=O)C=C2)c(C)c1 | yes |
| COc1cccc(-c2nc3cc(NC(=O)/C=C\c4ccccc4)ccc3o2)c1 | yes |
| CC(=O)C1=C(O)[C@@]2(O)C(=O)c3c(c(C)c4ccc(C)c(O)c4c3O)C[C@H]2[C@@H](N)C1=O | yes |
